Tested on: ScN2a
Experiment: Toxicity against mouse ScN2a cells measured as less than 80% confluency after 1 week
Assay type: functional
Item-by-item account of Activity
METRIC NAME: Activity

>>> df
                                     smiles  test_result
0  c1ccc2c(c1)Sc1ccccc1N2CCCN1CCN(CCCNc2c3ccccc3nc3ccccc23)CC1      1000 nM
1  c1ccc2c(c1)Sc1ccccc1N2CCCN1CCN(CCCCNc2c3ccccc3nc3ccccc23)CC1      4000 nM
2  COc1ccc2nc3cc(Cl)ccc3c(NCCCN3CCN(CCCN4c5ccccc5Sc5ccccc54)CC3)c2c1      2500 nM
3  COc1ccc2nc3cc(Cl)ccc3c(NCCCN3CCN(CCCN4c5ccccc5CCc5ccccc54)CC3)c2c1      1500 nM
4  c1ccc(N(CCCN2CCN(CCCCNc3c4ccccc4nc4ccccc34)CC2)c2ccccc2)cc1      1000 nM
5  COc1ccc2nc3cc(Cl)ccc3c(NCCCCN3CCN(CCCN4c5ccccc5CCc5ccccc54)CC3)c2c1       400 nM
6  COc1ccc2nc3cc(Cl)ccc3c(NCCN3CCN(CCCN4c5ccccc5CCc5ccccc54)CC3)c2c1      2000 nM
7  COc1ccc2nc3cc(Cl)ccc3c(NCCCCN3CCN(CCCN(c4ccccc4)c4ccccc4)CC3)c2c1     >1000 nM
8  COc1ccc2nc3cc(Cl)ccc3c(NCCCN3CCN(CCCN(c4ccccc4)c4ccccc4)CC3)c2c1      2000 nM
